Tested on: ACHN renal
method-summary: NCI-60 one-dose screen, 48 h
experimental-parameters: 10 µM unless noted
About 83,000 compounds went through this panel and 20% of them were active in at least one assay; those are over-represented in the sample as a whole. Activity calls are given as the source filed them. The calls were made as follows: active = growth percent below 10; inactive = the rest.
Labels: 1.0 (active), 0.0 (inactive)

compound: COc1cc(C)cc2oc3oc(=O)c(-c4csc(-c5cc6ccccc6oc5=O)n4)cc3c(=O)c12
cat: 0.0
//
compound: COc1cc2c(cc1OC)C(=O)OC2
cat: 0.0
//
compound: O=C(O)/C=C(\c1nc2ccc([N+](=O)[O-])cc2[nH]1)c1cc(Cl)ccc1O
cat: 0.0
//
compound: COc1cc(C2CC(c3cccc(Nc4ccnc5cc(Cl)ccc45)c3)=NN2c2ccc(Cl)cc2)cc(OC)c1OC (stereo not drawn)
cat: 0.0
//
compound: Nc1n[nH]c2ccc([C@@H]3Nc4c(F)cc5[nH]ncc5c4[C@H]4C5CCC(C5)[C@@H]34)cc12 (stereo partly drawn)
cat: 0.0
//
compound: NC(N)=N/N=C/c1ccccc1
cat: 0.0
//
compound: Cc1c(-c2ccc(-c3ccccc3F)cc2)nc2ccc(F)cc2c1C(=O)O
cat: 0.0
//
compound: CS(=O)(=O)Nc1cc(-c2cc3ncc(C#N)c(Nc4ccc(Oc5ccccc5)c(Cl)c4)c3s2)cnc1Cl
cat: 0.0
//
compound: CC(C)c1ccc(Cn2ccc3c4c(N)nc(NC5CC5)nc4ccc32)cc1
cat: 1.0
//
compound: Brc1ccccc1Cn1c(-c2cncs2)nc2ccccc21
cat: 0.0
//
compound: Cc1ccc(N=CNN=C(N)N)cc1
cat: 0.0
//
compound: Cc1c(C)c(C)c([N+](=O)[O-])c([N+](=O)[O-])c1C
cat: 0.0
//
compound: CCCCCCCCCC1=NC(C)(C)CN1C(C)(C)CO
cat: 0.0
